- Tested on: SNB-19 CNS
- TEST_METHOD_NOTES: NCI-60 one-dose screen, 48 h
- EXPERIMENTAL_CONDITIONS: 10 µM unless noted
About 83,000 compounds went through this panel and 20% of them were active in at least one assay; those are over-represented in the sample as a whole. Activity calls are given as the source filed them. The calls were made as follows: active = growth percent below 10; inactive = the rest.
Outcome codes: label 1 = active, label 0 = inactive

COMPOUND: C=C(C)[C@@H]1CC[C@]2(CO)CC[C@]3(C)[C@H](CC[C@@H]4[C@@]5(C)CC[C@H](NCO)C(C)(C)[C@@H]5CC[C@]43C)[C@@H]12
LABEL: label 0

COMPOUND: Cn1c(=O)c2nc(/C=C/c3ccccc3)c(=O)[nH]c2n(C)c1=S
LABEL: label 0

COMPOUND: COC(=O)c1c2c(c(C)[n+]([O-])c1C)C(=O)C(NCc1cccc(OC)c1)=CC2=O
LABEL: label 0

COMPOUND: S=c1sc2c(Cl)nc(-c3cccnc3)nc2n1-c1ccccc1
LABEL: label 0

COMPOUND: COc1ccccc1N1CCCCC1
LABEL: label 0

COMPOUND: CCOC(=O)c1cc(C)n(-c2ccc(C(=O)O)cc2)c1C
LABEL: label 0

COMPOUND: Cn1ccnc1C(=O)/C=C/c1ccc(C(=O)Nc2ccccc2O)cc1
LABEL: label 0

COMPOUND: O=c1c2cccc3c(N4CCCC4)ccc(c32)c2nc3ccccc3n12
LABEL: label 0

COMPOUND: COc1cc2oc(-c3cccc(NC(=O)c4ccccc4)c3)cc(=O)c2c(OC)c1OC
LABEL: label 0

COMPOUND: Cc1ccc2c(c1)=C/C(=C\c1cc(-c3ccccc3)oc1O)C(=O)N=2
LABEL: label 0

COMPOUND: COc1cc(/C=C/C(=O)c2ccc(F)cc2)ccc1OCCCCOc1ccc(/C=C/C(=O)c2c(C)nc3ccccc3c2C)cc1OC
LABEL: label 0

COMPOUND: CCOC(=O)c1c2c(n3cccc(F)c13)C(=O)c1ncccc1C2=O
LABEL: label 0

COMPOUND: O=c1c2ccccc2n2cnc3ccc(Cl)c1c32
LABEL: label 0

COMPOUND: COC(=O)/C=C1/SC(=Nc2ccc(C(F)(F)F)cc2)N(CCc2c[nH]c3ccc(O)cc23)C1=O
LABEL: label 1

COMPOUND: Nc1ncnc2c1N=C(c1ccc(Br)cc1)CC(c1cccc(Nc3ccnc4cc(C(F)(F)F)ccc34)c1)N2 (centres undefined)
LABEL: label 0

COMPOUND: CC1CCN(S(=O)(=O)c2ccc(S(=O)(=O)N3CCCC(c4nc5c(nnn5Cc5cccc(Cl)c5)c(=O)[nH]4)C3)cc2)CC1 (centres undefined)
LABEL: label 0

COMPOUND: CCn1cc(C(=O)O)c(=O)c2cc(F)c(N3CCN(CC(=O)Nc4ccc(S(=O)(=O)Nc5nccc(C)n5)cc4)C(C)C3)c(F)c21 (centres undefined)
LABEL: label 0

COMPOUND: CN1C(=O)/C(=C\c2c(Cl)cccc2Cl)c2ccccc21
LABEL: label 0

COMPOUND: NC(=O)c1cccc(-n2ccc3cc(NC(=O)c4ccc(N5CCOCC5)c(C(F)(F)F)c4)ccc32)n1
LABEL: label 0

---

- Tested on: SR leukemia
- TEST_METHOD_NOTES: NCI-60 one-dose screen, 48 h (100 = growth as untreated, 0 = no growth, -100 = all killed)
- EXPERIMENTAL_CONDITIONS: 10 µM unless noted
This is part of a sample that, as a whole, favours compounds with a hit. Of some 83,000 tested, about 20% had one in any assay.

MOLECULE: C1CCC([PH+](C2CCCCC2)C2CCCCC2[PH+](C2CCCCC2)C2CCCCC2)CC1.[Au].[CH-]1CCCCC1C1CCCC[N-]1 (stereo not given)
growth [%]: -3.06
//
MOLECULE: CCC(C(=O)[C@@H](C)[C@@H](O)[C@H](C)[C@@H]1O[C@@H]([C@@H](CC)C(=O)ONC(=O)c2ccccc2)CC[C@@H]1C)[C@H]1O[C@]2(C=CC(=O)[C@]3(CC[C@@](C)([C@H]4CC[C@](O)(CC)[C@H](C)O4)O3)O2)[C@H](C)C[C@@H]1C (stereo not given in full)
growth [%]: -22.5
//
MOLECULE: NC(=O)c1c(NC(=O)c2ccc3ccccc3c2)sc2c1CCC(=O)C2
growth [%]: 8.41
//
MOLECULE: CC1(C)COB(OCC(C)(C)COB2OCC(C)(C)CO2)OC1
growth [%]: 102
//
MOLECULE: CCNCCNc1cc(C2CCCCC2)c(C#N)c2nc3ccccc3n12
growth [%]: -10.4
//
MOLECULE: CCCCNC(=O)Oc1ccc(/C(=C(/C)Cc2ccc(OC)cc2)c2ccc(OCCN(CC)CC)cc2)cc1
growth [%]: 16.7
//
MOLECULE: CCOC(=O)C1=C(N)Oc2c(sc3c(F)cccc23)C1c1ccc(O)cc1 (stereo not given)
growth [%]: 15.3
//
MOLECULE: CCCC/C(CC)=N\NS(=O)(=O)c1ccc([N+](=O)[O-])cc1
growth [%]: 97.5
//
MOLECULE: O=C(CSc1nnc(-c2cnccn2)n1-c1ccccc1)c1ccc(Cl)cc1
growth [%]: 90.8
//
MOLECULE: Cc1nc2sc(C(=O)Nc3cccc4ccccc34)c(N)c2cc1C(O)c1ccccc1 (stereo not given)
growth [%]: -1.98
